measurementTarget: Mucosa-associated lymphoid tissue lymphoma translocation protein 1 (Homo sapiens)
Sequence (Q9UDY8 whole entry): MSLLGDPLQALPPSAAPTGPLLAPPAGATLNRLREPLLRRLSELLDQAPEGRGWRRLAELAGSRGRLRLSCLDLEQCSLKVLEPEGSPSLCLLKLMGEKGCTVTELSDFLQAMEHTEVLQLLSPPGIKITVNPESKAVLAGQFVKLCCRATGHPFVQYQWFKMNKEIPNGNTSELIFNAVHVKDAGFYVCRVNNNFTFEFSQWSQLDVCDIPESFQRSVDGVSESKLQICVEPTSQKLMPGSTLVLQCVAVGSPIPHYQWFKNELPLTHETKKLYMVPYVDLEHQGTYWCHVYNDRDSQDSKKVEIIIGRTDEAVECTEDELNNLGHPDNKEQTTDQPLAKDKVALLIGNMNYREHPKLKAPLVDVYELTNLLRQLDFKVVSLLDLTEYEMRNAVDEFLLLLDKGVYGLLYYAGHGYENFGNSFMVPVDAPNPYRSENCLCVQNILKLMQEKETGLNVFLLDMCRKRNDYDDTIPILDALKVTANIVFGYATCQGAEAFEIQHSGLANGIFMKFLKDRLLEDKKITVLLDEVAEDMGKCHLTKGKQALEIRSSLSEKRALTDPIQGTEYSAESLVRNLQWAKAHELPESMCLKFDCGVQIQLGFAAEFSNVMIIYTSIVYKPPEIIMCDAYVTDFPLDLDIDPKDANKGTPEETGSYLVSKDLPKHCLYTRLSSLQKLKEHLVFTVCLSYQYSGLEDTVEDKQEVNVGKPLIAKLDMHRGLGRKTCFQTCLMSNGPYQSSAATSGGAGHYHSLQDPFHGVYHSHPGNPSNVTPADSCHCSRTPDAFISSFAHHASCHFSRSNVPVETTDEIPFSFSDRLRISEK
assayRemarks: Inhibition of recombinant Malt1 (unknown origin) at 1 to 100 uM preincubated for 1 hr followed by (S)-1-((6-(4-(4-(5,5-Difluoro-3,7-bis(4-methoxyphenyl)-5H-4l4,5l4-dipyrrolo[1,2-c:20,10-f][1,3,2]diazaborinin-10-yl)butyl)-1H-1,2,3-triazol-1-yl)hexanoyl)-L-valyl-L-arginyl)-N-((S)-1-fluoro-6-guanidino-2-oxohexan-3-yl)pyrrolidine-2-carboxamide addition and incubated for 1 hr by SDS-PAGE based competitive activity-based protein profiling assay
The reader will find reported IC50 values listed item by item below.
Answer in µM, number only, no unit symbol.

moleculeSmiles: COCCOc1nc(-c2ccc(Br)cc2)n(-c2ccc(NC(=O)CCl)cc2)n1
quantityUnit: µM
quantitativeReadout: 2.1
//
moleculeSmiles: COCCOc1nc(-c2ccc(C)cc2)n(-c2ccc(NC(=O)CCl)cc2)n1
quantityUnit: µM
quantitativeReadout: 8.2
//
moleculeSmiles: COCCOc1nc(-c2ccc(F)cc2)n(-c2ccc(NC(=O)CCl)cc2)n1
quantityUnit: µM
quantitativeReadout: 10
//
moleculeSmiles: COCCOc1nc(-c2ccc(Cl)cc2)n(-c2ccc(NC(=O)CCl)cc2)n1
quantityUnit: µM
quantitativeReadout: 3

Notebook entry, Mucosa-associated lymphoid tissue lymphoma translocation protein 1 (Homo sapiens) assay: IC50 of COCCOc1nc(-c2ccc(Cl)c(Cl)c2)n(-c2ccc(NC(=O)CCl)cc2)n1 = ?
7.8
